target: Gonadotropin-releasing hormone receptor (Homo sapiens, UniProt P30968); test: Antagonist activity against human GnRH receptor expressed in CHO cells by IP-one HTRF assay
Sequence (P30968 whole entry): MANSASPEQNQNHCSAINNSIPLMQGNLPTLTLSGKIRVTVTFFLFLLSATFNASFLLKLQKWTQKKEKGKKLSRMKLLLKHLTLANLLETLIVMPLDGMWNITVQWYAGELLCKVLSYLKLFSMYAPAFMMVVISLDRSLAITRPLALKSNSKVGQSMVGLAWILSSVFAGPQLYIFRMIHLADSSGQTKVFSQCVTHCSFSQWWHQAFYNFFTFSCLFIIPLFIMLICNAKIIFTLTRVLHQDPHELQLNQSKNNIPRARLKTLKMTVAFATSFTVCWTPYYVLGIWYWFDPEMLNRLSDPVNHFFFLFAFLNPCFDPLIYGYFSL
measured.parameter: IC50 (µM)

P: O=C(NCc1ncc(Cl)cc1C(F)(F)F)c1ccc2c(c1)C1(CCS(=O)(=O)CC1)C(C1CC1)N2S(=O)(=O)c1ccc(F)cc1 (single isomer, unassigned; enantiomer 1)
Q: O=C(NCc1ncc(Cl)cc1C(F)(F)F)c1ccc2c(c1)C1(CCS(=O)(=O)CC1)C(C1CC1)N2S(=O)(=O)c1ccc(F)cc1 (single isomer, unassigned; enantiomer 2)
R: O=C(NCc1ncc(C(F)(F)F)cc1Cl)c1ccc2c(c1)C1(CCS(=O)(=O)CC1)C(C1CC1)N2S(=O)(=O)c1ccc(Cl)cc1 (single isomer, unassigned; enantiomer 1)
Query: Sort the entries above numerically by IC50, high end first. Rank them, then answer with their labels in that order.
Reply: R, Q, P
(R: 9.35 µM, Q: 4.08 µM, P: 0.0033 µM)
